- Test system: CAKI-1 renal
- Measurement Description: NCI tumour cell line growth inhibition, 48 h
Assign TGI to each entry below.

Query string: Entry N#CC1(C#N)NC(c2ccsc2)C(C#N)(C#N)NC1c1ccsc1 (stereo not given) , system CAKI-1 renal: what TGI was measured?
Result string: > 100 µM

Query string: Would you mind doing O=C1C2=C(c3ccccc31)C(c1ccccc1)NC(=S)N2 (stereo not given) as well?
Result string: > 100 µM

Query string: Would you mind doing `CC(=O)Nc1ccc2[nH]c(-c3cccc(F)c3)cc(=O)c2c1` as well?
Result string: > 100 µM

Query string: Would you mind doing COC(=O)CCC12CCC(O1)c1ccccc12 (stereo not given) as well?
Result string: > 100 µM

Query string: Would you mind doing `COc1ccc(NC(=O)c2cc(OC)c(OC)c(OC)c2)cc1` as well?
Result string: > 100 µM
